test system: goosegrass (Eleusine indica); assay: Test E greenhouse herbicide test, pre- and postemergence; format: in vivo; details: Preemergence, 250 g ai/ha; visual, scale 0 no effect to 100 complete control

Molecule	Plant response rating, Goosegrass
Cn1nc(Br)c(O)c(-c2cccc3ccccc23)c1=O [Compound 20]	85
Cc1nn(C)c(=O)c(-c2ccc(F)c3ccccc23)c1O [Compound 41]	60
CCc1sc2ccc(C)cc2c1-c1c(O)c(C)nn(C)c1=O [Compound 47]	0
Cc1cc2ccccc2c(-c2c(O)c(C)nn(C)c2=O)c1C [Compound 34]	10
CCc1sc2c(C)cc(C)cc2c1-c1c(O)c(C)nn(C)c1=O [Compound 57]	5

###

Entries annotated with measured Plant response rating, Oat, Wild
system: oat, wild (wild oat, Avena fatua); assay: Test C greenhouse herbicide test, postemergence; type: in vivo; conditions: Postemergence, 125 g ai/ha; scale 0 to 100, 0 is no effect, 100 is complete control
Readout: Plant response rating, Oat, Wild

Chem Smiles	Target Desc	Reading
Cc1nn(C)c(=O)c(-c2c(C)sc3ccc(C(F)(F)F)cc23)c1O	oat, wild (wild oat, Avena fatua)	80
Cc1nn(C)c(=O)c(-c2ccc(Br)c3ccccc23)c1O	oat, wild (wild oat, Avena fatua)	40
CC(=O)Oc1c(C)nn(C)c(=O)c1-c1c(C)sc2ccc(Cl)cc12	oat, wild (wild oat, Avena fatua)	90
CC(=O)Oc1c(C)nn(C)c(=O)c1-c1c(C)cc(C)c2ccccc12	oat, wild (wild oat, Avena fatua)	90
Cn1nc(Br)c(O)c(-c2cccc3ccccc23)c1=O	oat, wild (wild oat, Avena fatua)	25
Cc1nn(C)c(=O)c(-c2c(C)sc3ccc(Br)cc23)c1O	oat, wild (wild oat, Avena fatua)	80
CCCC(=O)Oc1c(C)nn(C)c(=O)c1-c1c(CC)sc2ccc(C)cc12	oat, wild (wild oat, Avena fatua)	40
COC(=O)Oc1c(C)nn(C)c(=O)c1-c1c(C)sc2ccc(C)cc12	oat, wild (wild oat, Avena fatua)	90
Cc1nn(C)c(=O)c(-c2cccc3ccccc23)c1O	oat, wild (wild oat, Avena fatua)	60

###

Entries annotated with measured Plant response rating (scale of 0 to 100), Galium
tested on: galium (catchweed bedstraw, Galium aparine); assay: Test D controlled growth environment herbicide test, pre- and postemergence; assay type: in vivo; conditions: Preemergence, 31 g ai/ha
Readout: Plant response rating (scale of 0 to 100), Galium

Chem Smiles	Reading
Cc1nn(C)c(=O)c(-c2cccc3ccc(Br)cc23)c1O	50
Cc1nn(C)c(=O)c(-c2cccc3ccccc23)c1O	70
CCc1sc2c(C)cc(C)cc2c1-c1c(O)c(C)nn(C)c1=O	85
Cc1ccc2ccccc2c1-c1c(OC(=O)OC(C)C)c(C)nn(C)c1=O	20

###

Entries annotated with measured Plant response rating, Speedwell
system: speedwell (bird's-eye speedwell, Veronica persica); experiment: Test D controlled growth environment herbicide test, pre- and postemergence; format: in vivo; conditions: Preemergence, 62 g ai/ha; scale 0 to 100 (0 no effect, 100 complete control)
Readout: Plant response rating, Speedwell

Chem Smiles	Reading
Cc1ccc2sc(C)c(-c3c(OC(=O)OC(C)C)c(C)nn(C)c3=O)c2c1	100
COC(=O)Oc1c(C)nn(C)c(=O)c1-c1c(C)sc2ccc(C)cc12	95
Cc1nn(C)c(=O)c(-c2ccc(F)c3ccccc23)c1O	95
Cc1nn(C)c(=O)c(-c2c(C)sc3c(C)cc(Cl)cc23)c1O	75
Cc1nn(C)c(=O)c(-c2c(C)sc3ccc(Br)cc23)c1O	0
Cc1nn(C)c(=O)c(-c2ccc(Br)c3ccccc23)c1O	100

Data origin: patent US10597388B2
